biological target: NTRK1 (Homo sapiens); experiment: SK-N-SH phospho-NTRK1 Western blot; format: cell-based; design: endogenous in cells; host or cells: SK-N-SH (ATCC HTB-11); settings: SK-N-SH cells, 4 h compound, NGF 100 ng/mL stimulated; read-out: IC50, inhibition of NTRK1 phosphorylation
Sequence (P04629 33-796): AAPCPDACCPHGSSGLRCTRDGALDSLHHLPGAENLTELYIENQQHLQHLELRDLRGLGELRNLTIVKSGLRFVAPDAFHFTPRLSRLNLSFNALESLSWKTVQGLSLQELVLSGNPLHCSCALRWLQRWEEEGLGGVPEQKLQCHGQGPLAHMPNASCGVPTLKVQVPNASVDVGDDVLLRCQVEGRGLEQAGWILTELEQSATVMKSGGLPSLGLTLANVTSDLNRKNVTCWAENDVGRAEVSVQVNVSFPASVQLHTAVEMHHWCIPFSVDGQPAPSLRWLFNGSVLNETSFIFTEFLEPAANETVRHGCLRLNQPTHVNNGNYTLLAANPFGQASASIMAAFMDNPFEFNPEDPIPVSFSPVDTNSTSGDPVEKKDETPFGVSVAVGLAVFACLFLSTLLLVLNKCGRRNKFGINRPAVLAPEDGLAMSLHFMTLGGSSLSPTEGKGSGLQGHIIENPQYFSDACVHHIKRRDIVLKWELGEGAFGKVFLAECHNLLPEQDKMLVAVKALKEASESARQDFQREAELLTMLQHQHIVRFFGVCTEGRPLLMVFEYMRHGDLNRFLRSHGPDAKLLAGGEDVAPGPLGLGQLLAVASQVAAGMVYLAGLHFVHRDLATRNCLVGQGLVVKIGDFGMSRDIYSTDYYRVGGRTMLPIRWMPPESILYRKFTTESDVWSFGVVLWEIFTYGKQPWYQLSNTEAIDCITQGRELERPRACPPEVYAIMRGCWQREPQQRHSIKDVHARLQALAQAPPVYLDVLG
pIC50: −log10 of the molar value.
metric: pIC50

                                 itemsmiles  metric  testvalue
0  O=C(Nc1cc(Oc2cc(F)c(NC(=O)C3(C(=O)Nc4ccc(F)cc4)CC3)cc2F)ccn1)C1CC1   pIC50       9.00

Attribution: patent US20160101090A1
